target: hMetAP1 (Homo sapiens); construct: made in house; assay: MetAP enzymatic assay, hMetAP1; assay type: biochemical; details: Table 2; in the presence of Mn^2+; read-out: hMetAP1 Mn^2+ IC50
Readout Name: IC50

• OCCN(CCO)Cc1cc(Cl)c2cccnc2c1O [Entry 2a] = > 50 µM

Proceeding to the next compound to report its IC50.
Ask: Could you share which IC50 value was measured for Oc1c(C(Nc2nccs2)c2ccco2)cc(Cl)c2cccnc12 (centres unmarked) [Entry 2g] ?
Result: > 50 µM

* * *

biological target: hMetAP2 (Homo sapiens, UniProt P50579); construct: made in house; assay: MetAP enzymatic assay, hMetAP2; format: biochemical; settings: Table 3; in the presence of Co^2+; read-out: hMetAP2 Co^2+ IC50
Sequence (P50579 whole entry): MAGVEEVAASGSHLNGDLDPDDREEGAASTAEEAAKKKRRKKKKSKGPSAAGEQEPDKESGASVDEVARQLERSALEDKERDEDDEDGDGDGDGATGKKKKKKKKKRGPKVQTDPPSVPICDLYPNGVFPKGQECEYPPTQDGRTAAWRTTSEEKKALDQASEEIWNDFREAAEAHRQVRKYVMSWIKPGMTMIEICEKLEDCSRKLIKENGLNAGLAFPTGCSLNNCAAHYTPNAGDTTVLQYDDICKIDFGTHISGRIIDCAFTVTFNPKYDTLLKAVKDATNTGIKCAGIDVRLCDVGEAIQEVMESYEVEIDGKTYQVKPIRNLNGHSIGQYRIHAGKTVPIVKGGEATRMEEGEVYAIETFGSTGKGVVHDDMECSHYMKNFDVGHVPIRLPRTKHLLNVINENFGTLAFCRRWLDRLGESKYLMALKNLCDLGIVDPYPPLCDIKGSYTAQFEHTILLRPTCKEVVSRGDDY
pIC50: −log10 of the molar value.
Readout Name: pIC50

• O=C(Nc1ccc(F)cc1)Oc1c(Cl)cc(Cl)c2cccnc12 [Entry 4f] = < 4.30

Ask: # get_value(readout='pIC50', item= O=C(Nc1cc(Cl)cc(Cl)c1)Oc1c(Cl)cc(Cl)c2cccnc12 [Entry 4b] )
Result: < 4.30

Ask: Also, O=C(Nc1ccccc1)Oc1c(Cl)cc(Cl)c2cccnc12 [Entry 4d] please.
Result: < 4.30
